molecular target: CYP2C9 (Homo sapiens, UniProt P11712); assay: Inhibition of CYP2C9 in human liver microsomes using sulfaphenazole as […] at 10 uM preincubated for 10 mins followed by NADPH addition measured after 15 mins by LC-MS/MS analysis relative to control; format: ADME, Microsome; settings: probe sulfaphenazole, time 25 min
Sequence (P11712 whole entry): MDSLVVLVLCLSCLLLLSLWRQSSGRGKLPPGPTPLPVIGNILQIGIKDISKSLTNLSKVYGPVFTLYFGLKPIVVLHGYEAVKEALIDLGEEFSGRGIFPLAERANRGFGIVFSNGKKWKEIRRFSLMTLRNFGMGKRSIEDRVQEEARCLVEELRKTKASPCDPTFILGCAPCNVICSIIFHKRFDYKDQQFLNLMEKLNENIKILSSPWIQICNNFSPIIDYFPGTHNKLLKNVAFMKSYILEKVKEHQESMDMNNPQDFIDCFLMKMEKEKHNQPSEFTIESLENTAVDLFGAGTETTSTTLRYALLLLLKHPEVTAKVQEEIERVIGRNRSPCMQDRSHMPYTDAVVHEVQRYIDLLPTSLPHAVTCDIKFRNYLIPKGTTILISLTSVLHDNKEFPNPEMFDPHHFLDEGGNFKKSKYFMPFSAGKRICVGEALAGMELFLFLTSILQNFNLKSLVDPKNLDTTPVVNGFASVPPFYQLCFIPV
outcome.measure: inhibition at 0.25 h, 10 µM (%)

[
  {
    "smi": "CC(C)n1nnc2ccc(-c3ccnc(Nc4cc(C(=O)N5CCCC5)ccn4)c3)cc21",
    "obs.value": 29.6
  }
]

[A] CC(C)n1nnc2ccc(-c3ccnc(Nc4cc(C(=O)N5CCCN(C)CC5)ccn4)c3)cc21
[B] CC(C)N1CCN(C(=O)c2ccnc(Nc3cc(-c4ccc5nnn(C(C)C)c5c4)ccn3)c2)CC1
[in] Which is greater in inhibition at 0.25 h, 10 µM, the first item A or the second item B ? In your reply, give the label of the chosen option.
[out] B
